In this section we review reported pIC50 values for a set of molecules.
# systemName: human MRGPR X4 (Homo sapiens, UniProt Q96LA9)
# Construct: expressed in transfected cells
# Sequence (Q96LA9 whole entry): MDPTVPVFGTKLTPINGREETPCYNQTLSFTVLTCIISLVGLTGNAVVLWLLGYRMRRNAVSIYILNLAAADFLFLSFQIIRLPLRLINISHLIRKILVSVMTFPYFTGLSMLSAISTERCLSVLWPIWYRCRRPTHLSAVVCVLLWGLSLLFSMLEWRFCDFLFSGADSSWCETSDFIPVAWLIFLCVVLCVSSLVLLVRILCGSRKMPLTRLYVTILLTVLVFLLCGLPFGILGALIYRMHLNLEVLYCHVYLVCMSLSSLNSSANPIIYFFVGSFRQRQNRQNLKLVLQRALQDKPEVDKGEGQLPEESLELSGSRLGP
# assayMethodText: MRGPR X4 antagonist activity, IP-One Gq HTRF assay in stably transfected HEK cells
# Format: cell-based
pIC50: −log10 of the molar value.

- molecule: "O=C(NCCc1cncc(F)c1)c1cn(Cc2ccc(Cl)cc2)c2ccccc12 [Compound 154]"
  systemName: "human MRGPR X4 (Homo sapiens, UniProt Q96LA9)"
  pIC50: "> 7.00"
- molecule: "Cc1ccc(Cn2nc(C(=O)NCCc3cn4c(n3)SCC4)c3ccccc32)cc1 [Compound 41]"
  systemName: "human MRGPR X4 (Homo sapiens, UniProt Q96LA9)"
  pIC50: "6.30 to 7.00"
- molecule: "O=C(NCCc1nnc2ccccn12)c1nn(Cc2cccc(C(F)(F)F)c2F)c2ccccc12 [Compound 459]"
  systemName: "human MRGPR X4 (Homo sapiens, UniProt Q96LA9)"
  pIC50: "6.30 to 7.00"
- molecule: "Cc1ccc(Cn2nc(C(=O)NCCc3ncnn3C)c3ccccc32)cc1 [Compound 113]"
  systemName: "human MRGPR X4 (Homo sapiens, UniProt Q96LA9)"
  pIC50: "5.60 to 6.00"
- molecule: "CC(C)c1cnnn1CCNC(=O)c1nn(Cc2ccc(Cl)cc2)c2ccccc12 [Compound 143]"
  systemName: "human MRGPR X4 (Homo sapiens, UniProt Q96LA9)"
  pIC50: "6.30 to 7.00"
- molecule: "COc1cc(Cl)ccc1Cn1nc(C(=O)NCCc2nc3c(s2)CCCC3)c2ccccc21 [Compound 123]"
  systemName: "human MRGPR X4 (Homo sapiens, UniProt Q96LA9)"
  pIC50: "< 5.60"
- molecule: "O=C(NCCn1cc(-c2cccnc2)nn1)c1nn(Cc2ccc(Cl)cc2)c2ccccc12 [Compound 144]"
  systemName: "human MRGPR X4 (Homo sapiens, UniProt Q96LA9)"
  pIC50: "6.30 to 7.00"
- molecule: "CC(Cc1ccccn1)NC(=O)c1nn(Cc2ccc(Cl)cc2)c2ccccc12 (centres unmarked) [Compound 127]"
  systemName: "human MRGPR X4 (Homo sapiens, UniProt Q96LA9)"
  pIC50: "< 5.60"

###

Attribute: pIC50
# systemName: human MRGPR X4 (Homo sapiens)
# Construct: expressed in transfected cells
# assayMethodText: MRGPR X4 antagonist activity, IP-One Gq HTRF assay in stably transfected HEK cells
# Assay type: cell-based
pIC50: −log10 of the molar value.
readoutLabel: pIC50

- lineNotation: "O=C(NCCc1nnc2ccccn12)c1nn(CCOc2ccc(Cl)cc2)c2ccccc12"
  systemName: "human MRGPR X4 (Homo sapiens)"
  measValue: "6.00 to 6.30"
- lineNotation: "C#Cc1ccc(Cn2nc(C(=O)NCCc3nnc4ccccn34)c3ccccc32)cc1"
  systemName: "human MRGPR X4 (Homo sapiens)"
  measValue: "6.30 to 7.00"
- lineNotation: "O=C(NCCc1cccnc1)c1cn(Cc2ccccc2Cl)c2ccccc12"
  systemName: "human MRGPR X4 (Homo sapiens)"
  measValue: "6.00 to 6.30"
- lineNotation: "O=C(NCCc1nnc2ccccn12)c1nn(Cc2cnc(C(F)(F)F)s2)c2ccccc12"
  systemName: "human MRGPR X4 (Homo sapiens)"
  measValue: "6.30 to 7.00"
- lineNotation: "Cc1ccc(CCNC(=O)c2nn(Cc3ccc(C(F)(F)F)cc3)c3ccccc23)cn1"
  systemName: "human MRGPR X4 (Homo sapiens)"
  measValue: "6.30 to 7.00"
- lineNotation: "Cn1ccc(CNC(=O)c2nn(Cc3ccc(Cl)cc3)c3ccccc23)cc1=O"
  systemName: "human MRGPR X4 (Homo sapiens)"
  measValue: "5.60 to 6.00"
- lineNotation: "Cc1cc(Cn2nc(C(=O)NCCc3nnc4ccccn34)c3ccccc32)ccc1Cl"
  systemName: "human MRGPR X4 (Homo sapiens)"
  measValue: "> 7.00"
- lineNotation: "O=C(NCCc1nnc2ccccn12)c1nn(Cc2ccc(-c3cnco3)cc2)c2ccccc12"
  systemName: "human MRGPR X4 (Homo sapiens)"
  measValue: "6.00 to 6.30"
- lineNotation: "O=C(CNC(=O)c1nn(Cc2ccc(Cl)cc2)c2ccccc12)c1ccc(F)cc1F"
  systemName: "human MRGPR X4 (Homo sapiens)"
  measValue: "< 5.60"
- lineNotation: "Cc1cc(Cl)ccc1Cn1nc(C(=O)NCCc2cccnc2)c2ccccc21"
  systemName: "human MRGPR X4 (Homo sapiens)"
  measValue: "6.30 to 7.00"
- lineNotation: "Cc1ccc(Cn2cc(C(=O)NCCc3nc4ccccc4s3)c3ccccc32)cc1"
  systemName: "human MRGPR X4 (Homo sapiens)"
  measValue: "6.00 to 6.30"
- lineNotation: "CC(C)c1cc(CNC(=O)c2nn(Cc3ccc(Cl)cc3)c3ccccc23)on1"
  systemName: "human MRGPR X4 (Homo sapiens)"
  measValue: "< 5.60"
- lineNotation: "Cc1ncccc1CCNC(=O)c1cn(Cc2ccc(Cl)cc2)c2ccccc12"
  systemName: "human MRGPR X4 (Homo sapiens)"
  measValue: "> 7.00"
- lineNotation: "O=C(NCCc1c[nH]c2ccc(Cl)cc12)c1nn(Cc2ccc(Cl)cc2)c2ccccc12"
  systemName: "human MRGPR X4 (Homo sapiens)"
  measValue: "< 5.60"
- lineNotation: "O=C(NCCc1nnc2ccccn12)c1nn(Cc2ccc(C(F)(F)F)cc2)c2ccccc12"
  systemName: "human MRGPR X4 (Homo sapiens)"
  measValue: "> 7.00"
- lineNotation: "N#Cc1ccc(CCNC(=O)c2cn(Cc3ccc(Cl)cc3)c3ccccc23)cn1"
  systemName: "human MRGPR X4 (Homo sapiens)"
  measValue: "6.00 to 6.30"
- lineNotation: "CC(=O)Nc1cccc(CNC(=O)c2nn(Cc3ccc(Cl)cc3)c3ccccc23)c1"
  systemName: "human MRGPR X4 (Homo sapiens)"
  measValue: "< 5.60"
- lineNotation: "O=C(NCCCc1ccncc1)c1nn(Cc2ccc(Cl)cc2)c2ccccc12"
  systemName: "human MRGPR X4 (Homo sapiens)"
  measValue: "< 5.60"
- lineNotation: "Cc1cccc(CCn2nc(C(=O)NCCc3nnc4ccccn34)c3ccccc32)c1"
  systemName: "human MRGPR X4 (Homo sapiens)"
  measValue: "5.60 to 6.00"
- lineNotation: "COc1ccc(Cn2nc(C(=O)NCCc3nnc4ccccn34)c3ccccc32)c2ccccc12"
  systemName: "human MRGPR X4 (Homo sapiens)"
  measValue: "6.30 to 7.00"
- lineNotation: "O=C(NCCc1nnc2ccccn12)c1nn(Cc2cc3ccccc3s2)c2ccccc12"
  systemName: "human MRGPR X4 (Homo sapiens)"
  measValue: "> 7.00"
- lineNotation: "CC(C)c1noc(Cn2nc(C(=O)NCCc3nnc4ccccn34)c3ccccc32)n1"
  systemName: "human MRGPR X4 (Homo sapiens)"
  measValue: "6.30 to 7.00"
- lineNotation: "Cc1ccc(Cn2nc(C(=O)NCCc3cccnc3)c3c(F)cccc32)cc1"
  systemName: "human MRGPR X4 (Homo sapiens)"
  measValue: "6.00 to 6.30"
- lineNotation: "O=C(NCCc1cccnc1)c1cn(Cc2ccc(OC(F)F)cc2)c2ccccc12"
  systemName: "human MRGPR X4 (Homo sapiens)"
  measValue: "6.30 to 7.00"
- lineNotation: "O=C(NCCc1ccncc1)c1nn(Cc2ccc(Cl)cc2)c2ccccc12"
  systemName: "human MRGPR X4 (Homo sapiens)"
  measValue: "6.30 to 7.00"
- lineNotation: "O=C(Nc1ccc2cccnc2c1)c1nn(Cc2ccc(Cl)cc2)c2ccccc12"
  systemName: "human MRGPR X4 (Homo sapiens)"
  measValue: "5.60 to 6.00"
- lineNotation: "O=C(NCCc1nnc2ccccn12)c1nn(CCc2ccc(C(F)(F)F)cc2)c2ccccc12"
  systemName: "human MRGPR X4 (Homo sapiens)"
  measValue: "5.60 to 6.00"
- lineNotation: "O=C(NCCc1nnc2n1CCCCC2)c1nn(Cc2cccc(F)c2)c2ccccc12"
  systemName: "human MRGPR X4 (Homo sapiens)"
  measValue: "6.30 to 7.00"
- lineNotation: "Cn1nc(CNC(=O)c2nn(Cc3ccc(Cl)cc3)c3ccccc23)c2cccnc21"
  systemName: "human MRGPR X4 (Homo sapiens)"
  measValue: "< 5.60"
- lineNotation: "N#Cc1ccc2c(C(=O)NCCc3nnc4ccccn34)nn(Cc3ccc(Cl)cc3)c2c1"
  systemName: "human MRGPR X4 (Homo sapiens)"
  measValue: "> 7.00"
- lineNotation: "CC(C)c1ccc(Cn2nc(C(=O)NCCc3nc4c(s3)CCCC4)c3ccccc32)cc1"
  systemName: "human MRGPR X4 (Homo sapiens)"
  measValue: "5.60 to 6.00"
- lineNotation: "O=C(NCCCn1cnc2ccccc21)c1nn(Cc2ccc(Cl)cc2)c2ccccc12"
  systemName: "human MRGPR X4 (Homo sapiens)"
  measValue: "5.60 to 6.00"
- lineNotation: "Cc1ccc(Cn2nc(C(=O)NCCc3noc(C(C)C)n3)c3ccccc32)cc1"
  systemName: "human MRGPR X4 (Homo sapiens)"
  measValue: "6.00 to 6.30"
- lineNotation: "O=C(NCCc1ccc(Cl)c(F)c1)c1cn(Cc2cccc(F)c2)c2ccccc12"
  systemName: "human MRGPR X4 (Homo sapiens)"
  measValue: "5.60 to 6.00"
